Reference source: ChEMBL document CHEMBL3272315

organism: Rattus norvegicus; experiment: Induction of pressor in vagotomized and ganglion-blocked rat assessed as initial pressor activity relative to angiotensin 2; format: functional
Non-standard residues stand in square brackets, D forms with d. Residues, ends and D or L forms follow the SMILES beside them. Sar = CNCC(=O)O
Catalogue of Activity readings, one per entry.
Numeric only. Scale: %

Consider the following illustrative entries.
{"COMPOUND": "CC[C@H](C)[C@H](NC(=O)[C@H](Cc1ccc(O)cc1)NC(=O)[C@@H](NC(=O)[C@H](CCCNC(=N)N)NC(=O)CNC)C(C)C)C(=O)N[C@@H](Cc1cnc[nH]1)C(=O)N1CCC[C@H]1C(=O)N[C@@H](CCSC)C(=O)O (H-[Sar]RVYIHPM-OH)", "Activity [%]": 3.74}
{"COMPOUND": "CC[C@H](C)[C@H](NC(=O)[C@H](Cc1ccc(O)cc1)NC(=O)[C@@H](NC(=O)[C@H](CCCNC(=N)N)NC(=O)CNC)C(C)C)C(=O)N[C@@H](Cc1cnc[nH]1)C(=O)N1CCC[C@H]1C(=O)N[C@@H](CO)C(=O)O (H-[Sar]RVYIHPS-OH)", "Activity [%]": 0.66}
{"COMPOUND": "CC[C@H](C)[C@H](NC(=O)[C@@H]1CCCN1C(=O)[C@H](Cc1cnc[nH]1)NC(=O)[C@@H](NC(=O)[C@H](Cc1ccc(O)cc1)NC(=O)[C@@H](NC(=O)[C@H](CCCNC(=N)N)NC(=O)[C@H](CC(=O)O)NC)C(C)C)[C@@H](C)CC)C(=O)O", "Activity [%]": 0.76}
{"COMPOUND": "CC[C@H](C)[C@H](NC(=O)[C@@H]1CCCN1C(=O)[C@H](Cc1cnc[nH]1)NC(=O)[C@@H](NC(=O)[C@H](Cc1ccc(O)cc1)N(C)C(=O)[C@@H](NC(=O)[C@H](CCCNC(=N)N)NC(=O)CNC)C(C)C)[C@@H](C)CC)C(=O)O", "Activity [%]": 0.34}
{"COMPOUND": "CC[C@H](C)[C@H](NC(=O)[C@@H]1CCCN1C(=O)[C@H](Cc1c[nH]cn1)NC(=O)[C@H]([C@@H](C)CC)N(C)C(=O)[C@H](Cc1ccc(O)cc1)NC(=O)[C@@H](NC(=O)[C@H](CCCN=C(N)N)NC(=O)CNC)C(C)C)C(=O)O", "Activity [%]": 0.46}

I'd like to know its Activity. The compound in question is CC[C@H](C)[C@H](NC(=O)[C@H](Cc1ccc(O)cc1)NC(=O)[C@@H](NC(=O)[C@H](CCCNC(=N)N)NC(=O)CNC)C(C)C)C(=O)N[C@@H](Cc1cnc[nH]1)C(=O)N1CCC[C@H]1C(=O)N(C)[C@H](C(=O)O)[C@@H](C)CC
1.06
